- System: MARIMO
- assay remarks: cell viability relative to vehicle control; higher = less cytotoxic;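 note: after 48 h exposure read by CellTiter-Glo luminescence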
- applied conditions: 10 µM; SRSF2 genotype: SRSF2 wt/wt
Threshold check on cell viability: strictly below 90% is Met; on or above 90% is Not met.

Q: Given C[C@@H]1CC[C@@]2(OC1)O[C@H]1C[C@H]3[C@@H]4CC=C5C[C@@H](O[C@@H]6O[C@H](CO)[C@@H](O[C@@H]7O[C@@H](CO)[C@H](O)[C@H]7O)[C@H](O)[C@H]6O[C@@H]6O[C@@H](C)[C@H](O)[C@@H](O)[C@H]6O)CC[C@]5(C)[C@H]4CC[C@]3(C)[C@H]1[C@@H]2C [Polyphyllin I] , is recorded cell viability strictly lower than 90%?
A: Met

Q: Strictly below 90% in cell viability? Nc1ccc(O)cc1 [4-Aminophenol]
A: Met

Q: Problem: For the compound CC1(C)S[C@@H]2[C@H](NC(=O)C(c3ccccc3)S(=O)(=O)O)C(=O)N2[C@H]1C(=O)O (stereo partly drawn) [Sulbenicillin Sodium] , is cell viability under 90%?
A: Not met

Q: cell viability strictly < 90% for this compound? CC(NC(=O)Cc1cc(F)cc(F)c1)C(=O)NC1C(=O)N(C)c2ccccc2-c2ccccc21 (stereo not drawn)
A: Not met

Q: Threshold test, cell viability < 90%: COc1ccc2[nH]c([S@@+]([O-])Cc3ncc(C)c(OC)c3C)nc2c1 [Esomeprazole sodium]
A: Not met

* * *

For each of the molecules below, state its cell viability.
- Tested on: K562
- assay remarks: cell viability relative to vehicle control; higher = less cytotoxic
- applied conditions: 10 µM; SRSF2 genotype: SRSF2 wt/wt
Structures can show the parent of a compound that is named as a salt.
Numbers only, in %.

Reference set (5 entries):
molecule="C=C[C@]1(C)C[C@@H](OC(=O)CSCCN(CC)CC)[C@]2(C)[C@H](C)CC[C@]3(CCC(=O)[C@H]32)[C@@H](C)[C@@H]1O [Tiamulin]" system_name=K562 value=90.1
molecule="CC(=O)SCC(Cc1ccccc1)C(=O)NCC(=O)OCc1ccccc1 (stereo not drawn) [Racecadotril (Acetorphan)]" system_name=K562 value=103
molecule="CCCOC(C(=O)OC1CCN(C)CC1)(c1ccccc1)c1ccccc1 [Propiverine hydrochloride]" system_name=K562 value=88.2
molecule="COc1cc2nc(N3CCN(C(=O)C4CCCO4)CC3)nc(N)c2cc1OC (stereo not drawn) [Terazosin HCl]" system_name=K562 value=96.6
molecule="O=C1CN2Cc3c(ccc(Cl)c3Cl)N=C2N1 [Anagrelide hydrochloride]" system_name=K562 value=108

Provide the reported cell viability of each entry below, same order.
1. Nc1ccc(C(=O)Nc2cccc(-c3nc(N4CCOCC4)c4oc5ncccc5c4n3)c2)cn1
2. Cc1noc(-c2ccc(CSCCC(=O)O)cc2)c1NC(=O)OC(C)c1ccccc1Cl (stereo not drawn)
3. COc1ccc(-c2oc3c(CC=C(C)C)c(O[C@@H]4O[C@H](CO)[C@@H](O)[C@H](O)[C@H]4O)cc(O)c3c(=O)c2O[C@@H]2O[C@@H](C)[C@H](O)[C@@H](O)[C@H]2O)cc1 [Icariin]
4. CN1CCN(Cc2ccc(NC(=O)Nc3ccc(Oc4cc(NC(=O)C5CC5)ncn4)cc3)cc2C(F)(F)F)CC1
5. O=C(Nc1cc2cc[nH]c2cn1)c1ccccc1
6. CC1(C)CC[C@]2(C(=O)O[C@@H]3O[C@H](CO[C@@H]4O[C@H](CO)[C@@H](O)[C@H](O)[C@H]4O)[C@@H](O)[C@H](O)[C@H]3O)CC[C@]3(C)C(=CC[C@@H]4[C@@]5(C)CC[C@H](O[C@@H]6OC[C@H](O)[C@H](O)[C@H]6O)[C@@](C)(CO)[C@@H]5CC[C@]43C)[C@@H]2C1 [Akebia saponin D]
7. CCN(CC)CCOc1ccc(C(=C(Cl)c2ccccc2)c2ccccc2)cc1 [Clomifene citrate (Serophene)]

A:
[95.8, 104, 98.7, 20.5, 43, 103, 62.6]

Q: GET /values?readout=cell viability&item= O=C[C@H](O)[C@@H](O)[C@H](O)CO [Xylose]
A: 96
